Measured values drawn from PubChem BioAssay (NCI) for this set.

- Test system: SK-MEL-5 melanoma
- METHOD NOTES: NCI-60 one-dose screen, 48 h (100 = growth as untreated, 0 = no growth, -100 = all killed)
- CONDITION SET: 10 µM
This is part of a sample that, as a whole, favours compounds with a hit. Of some 83,000 tested, about 20% had one in any assay.
Field: growth. Provide a value for each of the molecules that follow.
Answer with a number only, understood to be in %.

[Q] Entry CCOC(=O)C1=C(Nc2ccccc2)C(=O)OC12C(=O)Nc1ccccc12 (centres undefined) : reported growth = ?
[A] 107

[Q] // query: CC(C)N=C([Se])NC(=O)c1ccccc1
[A] -57.1

[Q] Request: O=C(/C=C/c1ccccc1)c1nc2ccccc2n1Cc1ccc(F)cc1
[A] 11

[Q] And the next one, O=C(NC([Se])=NC1CCCCC1)c1ccccc1 ?
[A] 18

[Q] Now the same for COc1cc(OC)c(S(=O)(=O)N(CCCl)CCCl)cc1C(=O)/C=C/c1ccc(C)cc1
[A] 97.5

[Q] Param item: O=C(/C=C/c1ccc(Cl)cc1)c1nc2ccccc2n1Cc1ccc(Br)cc1
[A] 85

[Q] Also, C[C@H]1[C@@H](Oc2ccc(-c3cn(-c4ccnc5cc(Cl)ccc45)nn3)cc2)O[C@@H]2OC3(C)CC[C@H]4[C@H](C)CC[C@@H]1[C@@]24OO3 please.
[A] 20.3

[Q] Repeat for the following molecule: C[C@H]1[C@H](OC(=O)CCC(=O)N(CCCc2cn(-c3ccc(C#N)cc3)nn2)CCNc2ccnc3cc(Cl)ccc23)O[C@@H]2OC3(C)CC[C@H]4[C@H](C)CC[C@@H]1[C@@]24OO3
[A] 22.9

[Q] Queued: C[C@H]1[C@H](OC(=O)CCC(=O)N(CCCc2cn(-c3ccc(CN4CCOCC4)cc3)nn2)CCNc2ccnc3cc(Cl)ccc23)O[C@@H]2OC3(C)CC[C@H]4[C@H](C)CC[C@@H]1[C@@]24OO3
[A] -90

[Q] Also need CCOP(=O)(OCC)C(NC(C)=O)C(=O)SCCN (centres undefined) , thanks.
[A] 99.1

[Q] Repeat for the following molecule: COc1cc(OC)c(S(=O)(=O)N(CCCl)CCCl)cc1C(=O)/C=C/c1cc(OC)c(OC)c(OC)c1
[A] -71.3

[Q] Try this molecule too: C=CCN=C([Se])NC(=O)c1ccc2c(c1)OCO2
[A] 90.8

[Q] Note, next up: CC1=C(CCC=NNC(N)=O)C2=C(C)C3(CC3)[C@@](C)(O)C(=O)C2=C1
[A] -100

[Q] // repeat for CC[C@@]12CC(C(=O)OC)=C3Nc4cc5c(cc4[C@@]34CCN(C[C@H]3O[C@H]31)[C@@H]24)[C@@H]1[C@H](O5)[C@@H](O)[C@@]2(CC)CC(C(=O)OC)=C3Nc4cc(OC)ccc4[C@@]34CCN1[C@@H]24 and report
[A] -85.1
